# procedure-summary: COS7 lysate on small-molecule microarray, probe aHis, 635 nm (AID 1123);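 further: z-score combines 667nm fluorescence intensity with signal-to-noise per printed compound spot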
# particulars: COS7 cell lysate, fluorescence, higher = more signal
Output Y for composite z-score not less than 2; output N otherwise.

Given the entry O=C1OCC=C[C@H]2OC34C=CCN(c5ccc6ccccc6c5)C(=O)[C@H]3N(CCO)C(=O)[C@@H]4[C@@H]12 (stereo partly specified) , answer whether its composite z-score meets or surpasses 2.
N

Form field: composite z-score at least 2? Entry: C=CC[C@]1(C(=O)NCCN2CCOCC2)N=C(c2ccc(OCCCO)cc2)O[C@H]1c1ccccc1N=[N+]=[N-]
N

Hi, just wondering whether COc1ccc(C#Cc2ccc3c(c2)[C@]2(C(=O)N3)[C@H](C(=O)N3CCc4cc(OC)c(OC)cc4C3)[C@H]3C(=O)O[C@H](c4ccccc4)[C@H](c4ccccc4)N3[C@@H]2c2ccc(OCCO)cc2)cc1 shows composite z-score of 2 or higher.
N

# bool: composite z-score of COC(=O)[C@@]1(Cc2ccc(F)cc2)[C@H]2c3cc(C(=O)N(C)C)n(CCCNc4ccc(C(F)(F)F)cc4Cl)c3C[C@H]2CN1C(=O)c1ccccc1 >= 2
Y

Please check the record C=CCC(OC(C)=O)[C@@H]1[C@@H](N(Cc2cc3ccccc3o2)C(=O)c2ccc(C)cc2)c2cc(OCCCO)ccc2N1C(=O)c1ccc(-c2ccccc2)cc1 (stereo partly specified) and state if its composite z-score is at or above 2.
N

Evaluate COC(=O)[C@@]1(Cc2ccc(OC)cc2)[C@H]2c3cc(C(=O)N4CCCC4)n(CCN4CCOCC4)c3C[C@H]2CN1C(=O)c1ccccc1 : composite z-score at minimum 2?
Y

The values you see were collected from PubChem BioAssay.
